- Tested on: DHL9, Increased ribonucleotide reduction
- Protocol Text: cells
- Test Settings: Homo sapiens, 120 h, read-out: ID50
Hi there, I'd appreciate the recorded pIC50 for every entry that follows.
One number for each entry, as −log10 of the molar value.

compound="Nc1nc(Cl)nc2c1ncn2[C@@H]1O[C@H](CO)[C@@H](O)[C@@H]1F [CAFdA]" test_system="DHL9, Increased ribonucleotide reduction" attribute_measured=pIC50 recorded_number=5.22

Moving on to the next compound.
Write down the reported pIC50 of Nc1nc(Cl)nc2c1ncn2[C@H]1C[C@H](O)[C@@H](CO)O1 [2-CdA, 2-chloro-2'-deoxyadenosine] , test system: DHL9, Increased ribonucleotide reduction.
5.40

---

- Test system: CEM, wild type
- Protocol Text: cells
- Test Settings: Homo sapiens, 120 h, read-out: ID50
Attribute Measured: IC50 (nM)
One number for each entry, in nM.

item_smiles=Nc1nc(Cl)nc2c1ncn2[C@H]1C[C@H](O)[C@@H](CO)O1 recorded_number=21

Tell me the measured IC50 of `Nc1nc(Cl)nc2c1ncn2[C@@H]1O[C@H](CO)[C@@H](O)[C@@H]1F` , please.
67
